- study.target: histamine receptor H1 (Homo sapiens, UniProt P35367)
- Sequence (P35367 whole entry): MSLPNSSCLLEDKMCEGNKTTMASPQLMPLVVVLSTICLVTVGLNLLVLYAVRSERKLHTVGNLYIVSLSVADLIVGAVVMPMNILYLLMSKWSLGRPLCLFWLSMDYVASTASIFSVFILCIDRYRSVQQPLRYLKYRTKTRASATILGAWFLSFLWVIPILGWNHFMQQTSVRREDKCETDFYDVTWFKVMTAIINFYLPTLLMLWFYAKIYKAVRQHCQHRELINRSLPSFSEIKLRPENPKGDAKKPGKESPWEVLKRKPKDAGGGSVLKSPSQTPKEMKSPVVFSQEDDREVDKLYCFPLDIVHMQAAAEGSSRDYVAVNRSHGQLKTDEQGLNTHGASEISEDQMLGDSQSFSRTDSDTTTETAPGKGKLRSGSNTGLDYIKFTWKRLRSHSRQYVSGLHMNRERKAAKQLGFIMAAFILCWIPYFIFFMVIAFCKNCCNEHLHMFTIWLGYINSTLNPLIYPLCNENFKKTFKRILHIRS
- assay: Histamine H1 radioligand binding ([3H]Pyrilamine)
- assay.conditions: read-out: Histamine Binding (1 μM) H1, percent inhibition of specific binding, 1 μM
Listing of entries alongside the reported inhibition at 1 µM.
Could you give me the number in %? Just the number is fine.

Known results for compounds:
INSERT INTO assay_data (compound, value_measured) VALUES
  ('C/C(=C\n1c2c(c3cc(N4CCCCC4)ccc31)CN(C)CC2)c1ccncc1', 1),
  ('C/C(=C/n1c2c(c3cc(Cl)ccc31)CN(C)CC2)c1ccncc1', 66),
  ('C/C(=C\n1c2c(c3cc(C)ccc31)CN(C)CC2)c1ccc(F)cc1F', 63),
  ('Cc1ccc2c(c1)c1c(n2C#Cc2ccsc2)CCN(C)C1', 52);

Enquiry: May I ask what inhibition at 1 µM has been recorded for C/C(=C\n1c2c(c3cc(Cl)ccc31)CN(C)[C@H](C)C2)c1ccncc1 ?
Return: 84

Enquiry: May I ask what inhibition at 1 µM has been recorded for CN1CCc2c(c3cc(Cl)ccc3n2/C=C(/c2ccc(F)cc2)C2CC2)C1 ?
Return: 77

Enquiry: May I ask what inhibition at 1 µM has been recorded for C/C(=C/n1c2c(c3cc(C)ccc31)CN(C)CC2)c1cccc(C(=O)N(C)C)c1 ?
Return: 56

Enquiry: May I ask what inhibition at 1 µM has been recorded for C=CCN1CCc2c(c3cc(C)ccc3n2/C=C(\C)c2ccncc2)C1 ?
Return: 67

Enquiry: May I ask what inhibition at 1 µM has been recorded for CCN1CCc2c(c3cc(C)ccc3n2CC(O)c2ccc(C)cc2)C1 (racemic) ?
Return: 100

Enquiry: May I ask what inhibition at 1 µM has been recorded for C/C(=C/n1c2c(c3cc(C)ccc31)CN(C)CC2)c1ccccc1Cl ?
Return: 88
